System: KM12 colon
Test: NCI tumour cell line growth inhibition, 48 h
EXPERIMENTAL_READOUT: TGI

Consider the worked cases shown below.
| CHEMICAL_SMILES | TGI |
| --- | --- |
| O=C(CSc1nnc(Cc2ccccc2)o1)Nc1ccc(Cl)cc1Cl | > 100 µM |
| COc1cc2c3c(c1O)N=NC=3CCN=2 | 88.4 µM |

Continue with the next molecule.
Reported TGI ( CCOC(=O)NN(C(=O)OCC)C(=C(c1ccccc1)N1CCOCC1)N(NC(=O)OCC)C(=O)OCC ) = > 100 µM

---

Tested on: SK-MEL-5 melanoma
Assay: NCI tumour cell line growth inhibition, 48 h
EXPERIMENTAL_READOUT: TGI (µM)
Provide only the numeric value, understood in µM.

| COMPOUND | MEASUREMENT_UNIT | VALUE |
| --- | --- | --- |
| CC#CC#Cc1cccc(=O)o1 | µM | 26.7 |
| COC(=O)/C=C1/SC(=Nc2ccc(C(F)(F)F)cc2)N(CCc2c[nH]c3ccc(O)cc23)C1=O | µM | 3.99 |
| CCCc1n(Cc2ccc3ccccc3c2)c2ccccc2[n+]1Cc1ccc2ccccc2c1 | µM | 0.311 |

Reported TGI ( C/C(Cc1ccc(Cl)cc1)=C(\c1ccc(OCCN2CCCCCC2)cc1)c1ccc(OC(=O)c2ccccc2)cc1 ) = 8.48

Briefly, TGI measured for COC(=O)c1c(O)c2c(c3c1OC(C)(C)CC3)OC(C)(C)CC2 : 28.2

TGI measured on CC(=O)NCCC1CN(C(=O)/C=C\I)c2ccccc21 (stereo not drawn) = 16

Recorded result, C/C(=C\CO)CC/C=C(\C)CNc1ccccc1 , TGI: 34.1

Lab book: TGI of O=c1c(Br)c(-c2ccccc2)[nH]c2ccccc12 noted as 29.9

// sample Cc1cn(C2CC(Br)C(COC(c3ccccc3)(c3ccccc3)c3ccccc3)O2)c(=O)[nH]c1=O (stereo not drawn) , its TGI was 25.5

Given item COC(=O)c1c(O)ccc2c1c1c(n2CCc2ccccc2)C(=O)c2ccccc2C1=O , the value recorded as its TGI is 25.3

Just so you know, measured TGI for COc1ccc(/C=C/C(=O)c2ccc(NC(=O)CSc3nnc(-c4ccc(OC)c(OC)c4)n3-c3ccccc3)cc2)cc1 came out at 4.12

get_value(item= Cc1ccc(-c2c(C#N)c(-c3ccccc3)c(C#N)c(=O)n2NS(=O)(=O)c2ccc(C)cc2)cc1 , readout=TGI) returns 31.9

Notebook: C=C(CN1CCc2ccccc2C1)c1ccc(CCC(=O)Nc2ccccc2N)cc1 , TGI read as 33.2

TGI reported for this compound C[C@]12CC[C@@H]3c4ccc(O)cc4CC[C@H]3[C@@H]1CC[C@@H]2NS(=O)(=O)c1cccc(OC(F)(F)F)c1 : 3.32

Reported TGI ( CCCOC(=O)c1ccc2c(c1)[N+](=O)C(C(=O)c1ccccc1)=C(C(F)(F)F)[N+]2=O ) = 3.11

TGI measured on COc1cc(/C=C2\N=C(c3ccccc3)N(c3cc4cc(Sc5ccccc5)ccc4[nH]3)C2=O)cc(OC)c1OC = 20.4

Data point: CC/C(=C(\c1ccc(Cl)cc1)c1ccc(OCCN2CCCCC2)cc1)c1ccc(O)cc1 ; TGI = 3.04

For record O=C1Nc2ccc(Br)cc2C1=Nc1ccc2c(c1)OCO2 the listed TGI is 30

// field: TGI; key: Clc1ccc(-c2ccc(CNCC3CCNCC3)o2)c(-c2ccccc2)c1 ; value = 3.05

Reported TGI of COc1ccc2c(c1)SC1=NNC(Cl)C(=O)N12 (stereo not drawn) : 34

Data point: COc1ccc(C(O)c2cc3c(N)c(C(=O)Nc4ccc(Br)cc4)sc3nc2C)cc1 (stereo not drawn) ; TGI = 11.4

---

Test system: HL-60(TB) leukemia
Test: NCI tumour cell line growth inhibition, 48 h
Where a SMILES comes first, the peptide text is derived from it. [ ]: non-standard residue; d: D form. The star is where a group is joined. Bn2Val = CC(C)[C@@H](C(=O)*)N(Cc1ccccc1)Cc1ccccc1; NH(4-F-benzyl) = Fc1ccc(CN*)cc1; NMeV = CN[C@H](C(=O)O)C(C)C; dNMeA = CN[C@H](C)C(=O)O
Let's look at some molecules and their measured TGI.
Write the value in µM as a bare number.

Recorded TGI, per entry:
| MOLECULE | TEST_TARGET | TGI [µM] |
| --- | --- | --- |
| CC#CC#Cc1cccc(=O)o1 | HL-60(TB) leukemia | 18.1 |
| COc1cc(/C=C2\N=C(c3ccccc3)N(c3cc4cc(Sc5ccccc5)ccc4[nH]3)C2=O)cc(OC)c1OC | HL-60(TB) leukemia | 31.9 |
| CCOC(=O)c1ccc2c(c1)c1c(C)c3cnccc3c(C)c1n2C | HL-60(TB) leukemia | 1.49 |

The molecule CC(C)[C@H](NC(=O)[C@H](C(C)C)N(Cc1ccccc1)Cc1ccccc1)C(=O)N(C)[C@H](C(=O)N1CCC[C@H]1C(=O)N(C)[C@H](C)C(=O)NCc1ccc(F)cc1)C(C)C (Bn2Val-V[NMeV]P[dNMeA]-{NH(4-F-benzyl)}) , when measured on HL-60(TB) leukemia, yielded TGI of 5.52

With HL-60(TB) leukemia as the test system, CC/C(=C(\c1ccc(Cl)cc1)c1ccc(OCCN2CCCCC2)cc1)c1ccc(O)cc1 showed TGI of 4.17

The observed TGI for O=C(CSCC(=O)N/N=C\c1cc(Cl)cc(Cl)c1O)N/N=C\c1cc(Cl)cc(Cl)c1O when tested with HL-60(TB) leukemia stands at 13.9

Measured on HL-60(TB) leukemia, CC(C)OC(=O)Nc1ccc(-c2nc(-c3cccc(OCCN4CCOCC4)c3)c(-c3ccnc(Br)c3)[nH]2)cc1 has a documented TGI of 4.59

Tested system HL-60(TB) leukemia; TGI recorded for Cc1ccc2cc3c(N)c4c(C)ccc(C)c4nc3nc2c1 was 40.8

I looked up C=C(C(=O)OC1C(CO)OC(OCC2CC[C@@H]3C[C@]4(OC(=O)C3=C)C(C)=CC(=O)C24)C(O)C1O)[C@@H]1CCC(CO)C2C(=O)C=C(C)[C@@]2(O)C1 (stereo not given in full) and its TGI for HL-60(TB) leukemia was 3.76

---

System: MDA-N
Test: NCI tumour cell line growth inhibition, 48 h
EXPERIMENTAL_READOUT: TGI

Some solved entries appear below for comparison.
| CHEMICAL_SMILES | TGI |
| --- | --- |
| Cc1ccc2ccc(O)cc2c1 | 42.6 µM |
| CCOC(=O)N1CCN(c2ccc3ccc(N)nc3n2)CC1 | > 100 µM |

Next item in the queue.
The molecule NS(=O)(=O)c1ccc(N=Nc2ncccc2O)cc1 on MDA-N: TGI was > 100 µM

---

Measured TGI by item
Tested on: UACC-62 melanoma
Experiment: NCI tumour cell line growth inhibition, 48 h
Kindly answer with a numeric value in µM, unit omitted.

| COMPOUND | TEST_TARGET | VALUE |
| --- | --- | --- |
| Cc1cc2nc3c4cc(C=O)ccc4n(CCN(C)C)c3nc2cc1C | UACC-62 melanoma | 3.7 |
| COc1cc(C(=O)/C=C/c2c(C)n([O-])c3ccc(C(F)(F)F)cc3[n+]2=O)cc(OC)c1OC | UACC-62 melanoma | 13.8 |
| COc1ccc(/C=C2/SC(c3ccccc3)N(NC(=O)CCCCCCCCC(=O)NN3C(=O)/C(=C\c4ccc(OC)c(OC)c4)SC3c3ccccc3)C2=O)cc1OC (stereo unspecified) | UACC-62 melanoma | 98.7 |
| COc1cc2c3c(c1O)N=NC=3CCN=2 | UACC-62 melanoma | 30.7 |

Next:
The compound identified as CC(=O)NCCC1CN(C(=O)/C=C\I)c2ccccc21 (stereo unspecified) registered its TGI at 28.3

---

System: DU-145 prostate
Assay: NCI tumour cell line growth inhibition, 48 h
TGI reference

Sample answers from the record:
| MOLECULE | EXPERIMENTAL_READOUT | VALUE |
| --- | --- | --- |
| CC/C(=C(\c1ccc(Cl)cc1)c1ccc(OCCN2CCCCC2)cc1)c1ccc(O)cc1 | TGI | 3.58 µM |
| Nc1nonc1-c1nc2cnccc2n1C1CCCCC1 | TGI | > 25 µM |
| Cc1cn(C2CC(Br)C(COC(c3ccccc3)(c3ccccc3)c3ccccc3)O2)c(=O)[nH]c1=O (centres undefined) | TGI | 27.7 µM |

CNC(=O)CNC(=O)CCC(=O)OC tested on DU-145 prostate gave TGI: > 100 µM

---

Tested on: ACHN renal
Where a SMILES comes first, the peptide text is derived from it. [ ]: non-standard residue; d: D form. The star is where a group is joined. Nle = CCCC[C@H](N)C(=O)O; Cbz = O=C(OCc1ccccc1)*
Return exactly one item of 1 for active, 0 for inactive

A selection of reference data follows.
| MOLECULE | ASSIGNED_CLASS |
| --- | --- |
| CCCC[C@@H](C=O)NC(=O)[C@H](CC(C)C)NC(=O)[C@H](CC(C)C)NC(=O)OCc1ccccc1 (Cbz-Leu-Leu-[Nle]-aldehyde) | 1 |
| C[C@]12CC[C@@H]3c4ccc(O)cc4CC[C@H]3[C@@H]1CC[C@@H]2NS(=O)(=O)c1cccc(OC(F)(F)F)c1 | 0 |
| COC(=O)C(=Cc1ccccc1[N+](=O)[O-])C(=O)OC | 0 |

Consider now this further molecule.
Query: Test call for this molecule, please: CCOC(=O)c1ccc2c(c1)c1c(C)c3cnccc3c(C)c1n2C
Reply: 1

Data credit: PubChem BioAssay (NCI)
